# Measurement Parameters: in isopropanol, 303.45 K
Value Kind: solubility (mole fraction)
Form: value (number only, do not type unit).

Name the recorded solubility (mole fraction) for `CC(=O)[C@@]12O[C@@H]1C[C@H]1[C@@H]3CCC4=CC(=O)CC[C@]4(C)[C@H]3[C@H](O)C[C@@]12C` . 0.000717

----------
# Measurement Parameters: in n-propanol, 304.05 K
Value Kind: solubility (mole fraction)
Form: value (number only, do not type unit).

Name the recorded solubility (mole fraction) for `CC(=O)[C@@]12O[C@@H]1C[C@H]1[C@@H]3CCC4=CC(=O)CC[C@]4(C)[C@H]3CC[C@@]12C` . 0.00459

----------
# Measurement Parameters: in 1,4-dioxane, 314.75 K
Value Kind: solubility (mole fraction)
Form: value (number only, do not type unit).

Name the recorded solubility (mole fraction) for `CC(=O)[C@@]12O[C@@H]1C[C@H]1[C@@H]3CCC4=CC(=O)CC[C@]4(C)[C@H]3[C@H](O)C[C@@]12C` . 0.00518

----------
# Measurement Parameters: in n-propanol, 317.15 K
Value Kind: solubility (mole fraction)
Form: value (number only, do not type unit).

Name the recorded solubility (mole fraction) for `CC(=O)[C@@]12O[C@@H]1C[C@H]1[C@@H]3CCC4=CC(=O)CC[C@]4(C)[C@H]3[C@H](O)C[C@@]12C` . 0.00172

----------
# Measurement Parameters: in DMSO, 333.67 K
Value Kind: solubility (mole fraction)
Form: value (number only, do not type unit).

Name the recorded solubility (mole fraction) for `CC(=O)[C@@]12O[C@@H]1C[C@H]1[C@@H]3CCC4=CC(=O)CC[C@]4(C)[C@H]3[C@H](O)C[C@@]12C` . 0.016

----------
# Measurement Parameters: in n-propanol, 327.95 K
Value Kind: solubility (mole fraction)

Name the recorded solubility (mole fraction) for `CC(=O)[C@@]12O[C@@H]1C[C@H]1[C@@H]3CCC4=CC(=O)CC[C@]4(C)[C@H]3[C@H](O)C[C@@]12C` . 0.0027

----------
# Measurement Parameters: in DMSO, 324.25 K
Value Kind: solubility (mole fraction)
Form: value (number only, do not type unit).

Name the recorded solubility (mole fraction) for `CC(=O)[C@@]12O[C@@H]1C[C@H]1[C@@H]3CCC4=CC(=O)CC[C@]4(C)[C@H]3[C@H](O)C[C@@]12C` . 0.0112

----------
# Measurement Parameters: in DMSO, 311.06 K
Value Kind: solubility (mole fraction)

Name the recorded solubility (mole fraction) for `CC(=O)[C@@]12O[C@@H]1C[C@H]1[C@@H]3CCC4=CC(=O)CC[C@]4(C)[C@H]3[C@H](O)C[C@@]12C` . 0.00772

----------
# Measurement Parameters: in n-propanol, 332.65 K
Value Kind: solubility (mole fraction)

Name the recorded solubility (mole fraction) for `CC(=O)[C@@]12O[C@@H]1C[C@H]1[C@@H]3CCC4=CC(=O)CC[C@]4(C)[C@H]3[C@H](O)C[C@@]12C` . 0.00322

----------
# Measurement Parameters: in n-butanol, 340.3 K
Value Kind: solubility (mole fraction)
Form: value (number only, do not type unit).

Name the recorded solubility (mole fraction) for `CC(=O)[C@@]12O[C@@H]1C[C@H]1[C@@H]3CCC4=CC(=O)CC[C@]4(C)[C@H]3CC[C@@]12C` . 0.0219
